target: 6-phosphogluconate dehydrogenase, decarboxylating (Homo sapiens); assay: 6PGD enzyme inhibitors, primary screen, biochemical, human, recombinant enzyme, NADPH absorbance (AID 1159550); conditions: recombinant 6PGD, NADPH absorbance 341 nm; at 10 µM; stronger effect = higher value
Activity calls are given as the source filed them.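 Rule for the calls: active = at least 20% inhibition of 6-phosphogluconate dehydrogenase activity; inactive = the rest.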
PARAMETER MEASURED: inhibition

Known inhibition results, listed for orientation:
The compound CC(CCc1ccccc1)NC(C)C(O)c1ccc(O)cc1 (stereo not drawn) showed inhibition equal to 14.2% (inactive)

The compound CN1CCc2cc3c(cc2C1O)OCO3 (stereo not drawn) showed inhibition equal to 0.261% (inactive)

The compound Cc1[nH]c2ccccc2c1CN(C)C showed inhibition equal to -5.39% (inactive)

The compound O=c1oc2ccccc2c(O)c1Cc1c(O)c2ccccc2oc1=O showed inhibition equal to -29.3% (inactive)

The compound O=c1cccc2n1CC1CC2CN2CCCC[C@@H]12 (stereo partly drawn) showed inhibition equal to 1.69% (inactive)

---
The compound COc1ccccc1N1CCNCC1 showed inhibition equal to -1.05% (inactive)

The compound CC1=NCCc2c1[nH]c1cc(O)ccc21 showed inhibition equal to -14.9% (inactive)

The compound CC1CC(Cl)CCC1C(=O)OC(C)(C)C (stereo not drawn) showed inhibition equal to -3.82% (inactive)

The compound COc1ccc2c(c1O)-c1c(OC)c(OC)cc3c1[C@H](C2)N(C)CC3 showed inhibition equal to 3.42% (inactive)

The compound CC1(C)[C@H](O)CC(=O)[C@@]2(C)[C@@H]1CC(=O)[C@]1(C)[C@H]2CC[C@@]2(C)[C@H](c3ccoc3)OC(=O)[C@H]3O[C@]321 showed inhibition equal to 8.09% (inactive)

----------
// inhibition lookup, one value per entry
experiment: growth inhibition of RCMB18 medulloblastoma cells, cell-based, cisplatin and BGB IC40 combos (AID 1671462); conditions: single agent, at 5 µM, stronger effect = higher value;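 note: cells exposed to compound for four days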
Report as a plain number; the unit % is understood.

Known inhibition results, listed for orientation:
The molecule O=P(O)(NCCCl)NCCCl showed inhibition equal to -40.3

The molecule CN(C)NC(=O)CCC(=O)O showed inhibition equal to -10.2

The molecule O=C(O)CCCc1ccc(N(CCCl)CCCl)cc1 showed inhibition equal to -21

---
The molecule COc1cc(C2c3cc4c(cc3C(O)C3COC(=O)C23)OCO4)cc(OC)c1OC (centres undefined) showed inhibition equal to 18.7

----------
assay: sensitizers of A549 cells to miR-34 induction, primary screen, imaging, A549 dox-inducible miR-34, nuclei and caspase counts (AID 1347080); conditions: A549 miR-34 inducible, Hoechst nuclei count, 48 h; measured here: relative caspase fold change +Dox/-Dox
PARAMETER MEASURED: fold change
Answer field: number only, no words.

Known fold change results, listed for orientation:
The compound OOCCC/C=C/c1ccccc1 showed fold change equal to 0.789

The compound Cn1cc(C2=C(c3cn(C4CCN(Cc5ccccn5)CC4)c4ccccc34)C(=O)NC2=O)c2ccccc21 showed fold change equal to 1.18

The compound CNc1ccc2oc(C[C@@H]3OC4(CC[C@@H]3C)O[C@H](C(C)C(=O)c3ccc[nH]3)[C@H](C)C[C@H]4C)nc2c1C(=O)O (some centres undefined) showed fold change equal to 0.886

---
The compound Clc1ccc(C(c2ccc(Cl)cc2)n2cc[n+](CC(OCc3ccc(Cl)cc3Cl)c3ccc(Cl)cc3Cl)c2)cc1 (centres undefined) showed fold change equal to 1.87

The compound FC(F)(F)c1cccc(N2CCNCC2)c1 showed fold change equal to 1.38

The compound CCCCCCCCCCCCCC(=O)O[C@@H]1[C@@H](C)[C@@]2(O)[C@@H](C=C(CO)C[C@]3(O)C(=O)C(C)=C[C@@H]23)[C@@H]2C(C)(C)[C@]12OC(C)=O showed fold change equal to 1.01

The compound CC(C)CC(NP(=O)(O)OC1OC(C)C(O)C(O)C1O)C(=O)NC(Cc1c[nH]c2ccccc12)C(=O)O (centres undefined) showed fold change equal to 0.289

The compound CCn1cnc2c(Nc3cccc(Cl)c3)nc(N[C@@H]3CCCC[C@@H]3N)nc21 showed fold change equal to 0.968

The compound COC(C/C=C/C=C/CC/C=C\CC(C)/C=C\C(=C/C(=O)O)CC(=O)O)/C(C)=C\C=C(/C)C(=O)O (centres undefined) showed fold change equal to 1.25

The compound CN1C[C@H](C(=O)N[C@]2(C)C[C@@]3(O)C4CCCN4C(=O)[C@H](Cc4ccccc4)N3C2=O)C=C2c3cccc4[nH]cc(c34)C[C@H]21 (some centres undefined) showed fold change equal to 6.73
